// provenance: ChEMBL document CHEMBL5030511

- targetOfAssay: RAF proto-oncogene serine/threonine-protein kinase (Homo sapiens, UniProt P04049, Y340D/Y341D)
- Sequence (P04049 whole entry Y340D/Y341D): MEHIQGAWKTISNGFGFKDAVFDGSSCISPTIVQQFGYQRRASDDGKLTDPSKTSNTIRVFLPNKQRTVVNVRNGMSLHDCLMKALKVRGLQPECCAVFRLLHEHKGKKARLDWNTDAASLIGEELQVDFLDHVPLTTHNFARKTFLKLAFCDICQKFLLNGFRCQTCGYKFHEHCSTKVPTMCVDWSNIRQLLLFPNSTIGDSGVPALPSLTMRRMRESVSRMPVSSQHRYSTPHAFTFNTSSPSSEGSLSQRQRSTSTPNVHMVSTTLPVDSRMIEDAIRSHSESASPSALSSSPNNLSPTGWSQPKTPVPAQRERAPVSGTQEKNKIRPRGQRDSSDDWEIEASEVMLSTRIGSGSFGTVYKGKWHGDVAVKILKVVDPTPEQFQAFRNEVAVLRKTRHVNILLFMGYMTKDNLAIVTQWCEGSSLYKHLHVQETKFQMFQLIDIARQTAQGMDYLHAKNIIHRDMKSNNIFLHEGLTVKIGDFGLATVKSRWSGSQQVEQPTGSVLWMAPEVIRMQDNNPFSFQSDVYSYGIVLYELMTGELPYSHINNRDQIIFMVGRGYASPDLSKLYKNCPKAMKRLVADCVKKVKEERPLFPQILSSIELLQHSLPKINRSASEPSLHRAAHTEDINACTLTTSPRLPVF
pKi: −log10 of the molar value.

{"smilesString": "Cc1cc(F)c(NC(=O)NCCC(C)(C)C)cc1NC(=O)N(C)c1cc(N)ncn1", "pKi": "> 10.30"}
{"smilesString": "CNc1cc(-c2cccnc2Nc2cc(NC(=O)NCCC(C)(C)C)c(F)cc2C)ncn1", "pKi": 10.22}
{"smilesString": "COc1n[nH]c2ncc(NC(=O)c3cc(NC(=O)NCCC(C)(C)C)c(F)cc3C)cc12", "pKi": "> 10.30"}
{"smilesString": "Cc1cc(F)c(NC(=O)NCCC(C)(C)C)cc1Nc1ccc2ncn(C)c(=O)c2c1", "pKi": "> 10.30"}
{"smilesString": "Cc1cc(F)c(NC(=O)NCCC(C)(C)C)cc1NC(=O)c1cccc2c(N)ncnc12", "pKi": "> 10.30"}
{"smilesString": "Cc1cc(F)c(NC(=O)NCCC(C)(C)C)cc1Nc1ccc2ncn(C)c(=O)c2c1F", "pKi": 10.21}

* * *

- assayProcedure: Oral bioavailability in mouse using PEG 400 at 5 mg/kg
- Format: ADME, organism-based
- experimentalParameters: in vivo

{"smilesString": "Cc1cc(F)c(NC(=O)NCCC(C)(C)C)cc1Nc1ccc2ncn(C)c(=O)c2c1F", "bioavailability (%)": 26}

* * *

- assayProcedure: Oral bioavailability in mouse using amorphous spray-dried dispersion at 30 mg/kg
- Format: ADME, organism-based
- experimentalParameters: in vivo

{"smilesString": "Cc1cc(F)c(NC(=O)NCCC(C)(C)C)cc1Nc1ccc2ncn(C)c(=O)c2c1F", "bioavailability / %": 60}

* * *

- assayProcedure: Apparent permeability from apical to basolateral side in dog MDCK cells
- Type: ADME, cell-based, Canis lupus familiaris
Examples of compounds with documented Papp A→B follow.

{"smilesString": "Cc1cc(F)c(NC(=O)NCCC(C)(C)C)cc1Nc1ccc2ncn(C)c(=O)c2c1F", "unitInfo": "×10⁻⁶ cm/s", "Papp A→B": 13}
{"smilesString": "Cc1cc(F)c(NC(=O)NCCC(C)(C)C)cc1Nc1ccc2ncn(C)c(=O)c2c1", "unitInfo": "×10⁻⁶ cm/s", "Papp A→B": 3.6}

* * *

Examples of compounds with documented half-life follow.
- assayProcedure: Half life in mouse at 1 mg/kg, iv
- Type: ADME, organism-based
- experimentalParameters: in vivo

{"smilesString": "Cc1cc(F)c(NC(=O)NCCC(C)(C)C)cc1Nc1ccc2ncn(C)c(=O)c2c1", "unitInfo": "min", "half-life": 30}
{"smilesString": "Cc1cc(F)c(NC(=O)NCCC(C)(C)C)cc1Nc1ccc2ncn(C)c(=O)c2c1F", "unitInfo": "min", "half-life": 48}

* * *

Examples of compounds with documented solubility kinetic follow.
- assayProcedure: Kinetic solubility of the compound in pH 7.4 PBS buffer
- Assay type: physicochemical
- experimentalParameters: read-out: Kinetic_solubility

{"smilesString": "Cc1cc(F)c(NC(=O)NCCC(C)(C)C)cc1Nc1ccc2ncn(C)c(=O)c2c1F", "boundOperator": "=", "solubility kinetic [µM]": 3}
{"smilesString": "Cc1cc(F)c(NC(=O)NCCC(C)(C)C)cc1Nc1ccc2ncn(C)c(=O)c2c1", "boundOperator": "<", "solubility kinetic [µM]": 1}

* * *

Examples of compounds with documented clearance follow.
- assayProcedure: Clearance in mouse at 1 mg/kg, iv
- Assay type: ADME, organism-based
- experimentalParameters: in vivo

{"smilesString": "Cc1cc(F)c(NC(=O)NCCC(C)(C)C)cc1Nc1ccc2ncn(C)c(=O)c2c1F", "clearance": "27 mL/min/kg"}
{"smilesString": "Cc1cc(F)c(NC(=O)NCCC(C)(C)C)cc1Nc1ccc2ncn(C)c(=O)c2c1", "clearance": "50 mL/min/kg"}

* * *

- Test system: A549
- assayProcedure: Antiproliferative activity against human A549 cells harboring KRAS mutant assessed as reduction in cell viability incubated for 24 hrs by Click-iT EdU cell proliferation imaging assay
- Assay type: functional, cell-based
- experimentalParameters: A549, 24 h
pIC50: −log10 of the molar value.
pIC50 below 6 gives not satisfied; pIC50 at or above it gives satisfied.

{"smilesString": "CNc1cc(-c2cccnc2Nc2cc(NC(=O)NCCC(C)(C)C)c(F)cc2C)ncn1", "category": "not satisfied"}
{"smilesString": "Cc1cc(F)c(NC(=O)NCCC(C)(C)C)cc1Nc1ccc2ncn(C)c(=O)c2c1F", "category": "not satisfied"}
{"smilesString": "Cc1cc(F)c(NC(=O)NCCC(C)(C)C)cc1Nc1ccc2ncn(C)c(=O)c2c1", "category": "not satisfied"}
{"smilesString": "Cc1cc(F)c(NC(=O)NCCC(C)(C)C)cc1NC(=O)c1cccc2c(N)ncnc12", "category": "satisfied"}
